Test description: Cytotoxicity against mouse RAW264.7 cells assessed as cell viability at 40 uM measured after 24 hrs by MTT assay relative to control
Type: toxicity, cell-based
Study conditions: read-out: Activity
Attribute measured: viability at 24 h, 40 µM (%)
Answer format: numeric, % implied, no suffix.

CC(=O)O[C@H]1C[C@@]2(C)[C@@H](C[C@@H](O)[C@H]3[C@@]4(C)CC[C@@H](OC(=O)c5ccccc5C(=O)NOC5CCCCO5)[C@@H](C)[C@@H]4CC[C@@]32C)/C1=C(\CCC=C(C)C)C(=O)OCc1ccccc1 (some centres undefined); 94.1
CC(=O)O[C@H]1C[C@@]2(C)[C@@H](C[C@@H](O)[C@H]3[C@@]4(C)CC[C@@H](OC(=O)CCSSCCC(=O)NOC(=O)c5ccc([N+](=O)[O-])cc5)[C@@H](C)[C@@H]4CC[C@@]32C)/C1=C(\CCC=C(C)C)C(=O)OCc1ccccc1; 91
CC(=O)O[C@H]1C[C@@]2(C)[C@@H](C[C@@H](O)[C@H]3[C@@]4(C)CC[C@@H](OC(=O)CCSSCCC(=O)NOc5ccc([N+](=O)[O-])cc5)[C@@H](C)[C@@H]4CC[C@@]32C)/C1=C(\CCC=C(C)C)C(=O)OCc1ccccc1; 103

Reported viability at 24 h, 40 µM, molecule `C=CCONC(=O)c1ccccc1C(=O)O[C@@H]1CC[C@@]2(C)[C@@H](CC[C@@]3(C)[C@H]2[C@H](O)C[C@H]2/C(=C(\CCC=C(C)C)C(=O)OCc4ccccc4)[C@@H](OC(C)=O)C[C@@]23C)[C@@H]1C` : ____
101
